Test system: DU-145 prostate
TEST SUMMARY: NCI-60 one-dose screen, 48 h
MEASUREMENT PARAMETERS: 10 µM unless noted
This is part of a sample that, as a whole, favours compounds with a hit. Of some 83,000 tested, about 20% had one in any assay. Active and inactive are the calls of the source. The calls were made as follows: active = growth percent below 10; inactive = the rest.
Select the correct class. Options are active, inactive and nothing else.

INSERT INTO results (compound, answer_label) VALUES
  ('CCn1cc(CNc2ccc(C(=O)Nc3cc4cc(OC)c(OC)cc4c(C)n3)cc2)cn1', 'inactive');

Hi, do you know how `O=C1NC(=O)/C(=C/c2c(-c3ccccc3)nc3sc(COc4ccccc4)nn23)S1` came out in this test?
inactive

Now the same for `COc1cc(OC)cc(-c2ccc(-c3ccc(C(=N)N)o3)o2)c1`
inactive

Try the compound `CNC(=O)c1cc(Oc2cccc3nc(NC(=O)Nc4cc(C(F)(F)F)ccc4Cl)ccc23)ccn1`
inactive

* * *

Tested on: NCI/ADR-RES ovarian
TEST SUMMARY: NCI-60 one-dose screen, 48 h (100 = growth as untreated, 0 = no growth, -100 = all killed)
MEASUREMENT PARAMETERS: 10 µM unless noted
About 83,000 compounds went through this panel and 20% of them were active in at least one assay; those are over-represented in the sample as a whole. The source made the active and inactive calls. Rule for the calls: active = growth percent below 10; inactive = the rest.
ENDPOINT LABEL: growth

Worked examples, 5 compounds total:
INSERT INTO results (compound, recorded_measurement) VALUES
  ('Cc1ccc(-c2nc(SCc3nc4cc(Cl)c(Cl)cc4[nH]3)[nH]c(=O)c2C#N)cc1', '111% (inactive)'),
  ('CC(=O)ON1CCCC(P(=O)(OCCSC(=O)C(C)(C)C)OCCSC(=O)C(C)(C)C)C1=O (stereo not drawn)', '13.2% (inactive)'),
  ('CCN1CCN(CC(=O)Nc2ccc(-c3cn4c(n3)sc3cc(Oc5ccnc(C(=O)NC)c5)ccc34)cc2)CC1', '89% (inactive)'),
  ('COc1cnc2c(c1)C(=O)c1c-2n(CCCCl)c(=O)c2ccncc12', '59% (inactive)'),
  ('CCN1CCN(C(=O)[C@]23CC[C@@H](C)[C@H](C)[C@@H]2C2=CC[C@@H]4[C@@]5(C)C/C(=C/c6cccnc6)C(=O)C(C)(C)[C@@H]5CC[C@@]4(C)[C@]2(C)CC3)CC1', '26.7% (inactive)');

What does the record list as growth for `COCCn1cc(-c2csc(-c3c[nH]c4ccc(Br)cc34)n2)c2cccnc21` ?
10.8% (inactive)

Lookup `O=C(CCCCCCN1CC(=O)N2[C@H](c3ccc(Br)cc3)c3[nH]c4ccccc4c3C[C@@H]2C1=O)NO`
89.6% (inactive)

Next record, please: `Cn1cc(-c2csc(-c3c[nH]c4ccc(F)cc34)n2)c2ccnc(Cl)c21`
71.4% (inactive)

Check `C=C(C)[C@@H]1CC[C@]2(C(N)=O)CC[C@]3(C)[C@H](CC[C@@H]4[C@@]5(C)CC[C@H](OCCC#N)C(C)(C)[C@@H]5CC[C@]43C)[C@@H]12` too.
89% (inactive)

Now this one: CC1=C(CCC(C)NCc2ccc(OCCCN3CCCCC3)cc2)C(C)(C)CCC1 (stereo not drawn)
-40.5% (active)

Now consider `O=C(N/N=C\c1cccc([N+](=O)[O-])c1)N/N=C/c1cccc([N+](=O)[O-])c1` and answer again.
106% (inactive)

Try this compound too: `Fc1cc(Nc2ccc3c(OCCCN4CCOCC4)cccc3n2)ccc1Cl`
48.5% (inactive)

Cool, now `Cc1ccnc(Nc2ccc([N+](=O)[O-])c(NCCN3CCOCC3)n2)c1`
43.9% (inactive)

Follow-up item: `CN(C)CCN1C(=O)c2cccc3c(/C=C/CN4C(=O)c5cccc6cccc(c56)C4=O)ccc(c23)C1=O`
24% (inactive)

Now the compound `Cc1ccc(-c2nc(/C=C3/C(=O)Nc4ccc(F)cc43)c3ccccn23)cc1`
85.3% (inactive)

// query: `O=C1/C(=C/c2ccccc2F)CN(C(=O)C(Cl)Cl)C/C1=C\c1ccccc1F`
5.18% (active)

And what about the compound `O=C(CCl)NNc1nccc(Nc2ccc(S(=O)(=O)Nc3ccncc3)cc2)n1` ?
51% (inactive)

And for `Clc1ccc(-c2cc(-c3ccccc3)nc(NCCNc3ccnc4cc(Cl)ccc34)n2)cc1` ?
-63.4% (active)

Hello, the source for this data is PubChem BioAssay (NCI), in case you need it.
